- Study System: human recombinant COX2 (hCOX2)
- Measurement Description: LCMS-based COX2 enzymatic inhibition assay (PGE2 quantification)
- Assay type: biochemical
- Set-up: COX2 2 minutes pge2/pge2d4 area ratio Avg; other: 2 minutes; readout pge2/pge2d4 area ratio; average; COX2 2 minutes pge2/pge2d4 area ratio Avg; LLE; average LLE; COX2 2 minutes pge2 area (counts) Avg; readout pge2 area (counts); other: 2 min; "ovine COX2 (oCOX2), human recombinant COX2 (hCOX2)"
- Condition: 2 minutes; readout pge2/pge2d4 area ratio; average; read-out: COX2 2 minutes pge2/pge2d4 area ratio Avg. IC50
Property Measured: IC50 (µM)

[
  {
    "Molecule": "CS(=O)(=O)c1ccc(-c2ccc3c(n2)N(Cc2cccs2)CC3)cc1",
    "Property Measured": "IC50",
    "Unit Tag": "µM",
    "Recorded Result": 0.121
  }
]

P. CS(=O)(=O)c1ccc(-c2cnc3cnn(Cc4cccs4)c3n2)cc1
Q. CS(=O)(=O)c1ccc(-n2ccc3ccc(OCc4cccs4)nc32)cc1
Please compare: P and Q . Report which one has the smaller IC50 value. Your answer should be the label attached to the chosen record.
P

I. CS(=O)(=O)c1ccc(-c2cc(C(F)(F)F)nc(Oc3ccc(F)cc3)n2)cc1
II. CS(=O)(=O)c1ccc(-c2cncc(NCc3ccccc3)n2)cc1
III. CS(=O)(=O)c1ccc(-c2cncc(SCc3ccno3)n2)cc1
Your job: order these 3 records by IC50, ascending. # the answer lists labels in the order requested
II, I, III
(II: 0.069 µM, I: 0.153 µM, III: 0.772 µM)

* * *

- Study System: human recombinant COX2 (hCOX2)
- Measurement Description: LCMS-based COX2 enzymatic inhibition assay (PGE2 quantification)
- Format: biochemical
- Parameters: COX2 2 minutes pge2/pge2d4 area ratio Avg; other: 2 minutes; readout pge2/pge2d4 area ratio; average; COX2 2 minutes pge2/pge2d4 area ratio Avg; LLE; average LLE; COX2 2 minutes pge2 area (counts) Avg; readout pge2 area (counts); other: 2 min; "ovine COX2 (oCOX2), human recombinant COX2 (hCOX2)"
- Condition: 10 minutes; readout pge2 area (counts); average; read-out: COX2 10 minutes pge2 area (counts) Avg. IC50
Property Measured: IC50 (nM)

[
  {
    "Molecular String": "CS(=O)(=O)c1ccc(-c2cncc(Oc3ccc(F)cc3)n2)cc1",
    "IC50, nM": 1640
  }
]

A. CS(=O)(=O)c1ccc(-c2cncc(NCc3ccc(F)cn3)n2)cc1
B. CS(=O)(=O)c1ccc(-c2cnc(C#N)c(NCc3cccs3)n2)cc1
Of A versus B , which is the one with smaller reported IC50? Could you answer with the label of the item you picked?
B
(B: 59.1 nM, A: 1960 nM)

I. CC(C)CNc1cncc(-c2ccc(S(C)(=O)=O)cc2)n1
II. Cc1ncc(-c2ccc(S(C)(=O)=O)cc2)nc1NCc1cccs1
For this pair, I and II , which shows a numerically higher IC50? Answer by quoting the chosen item's label.
I
(I: 119 nM, II: 38.8 nM)

* * *

- Study System: ovine COX-1 (oCOX-1) (Ovis aries, UniProt P05979)
- Construct: purchased Cayman Chemicals (Ann Arbor, Mich.)
- Sequence (P05979 25-600): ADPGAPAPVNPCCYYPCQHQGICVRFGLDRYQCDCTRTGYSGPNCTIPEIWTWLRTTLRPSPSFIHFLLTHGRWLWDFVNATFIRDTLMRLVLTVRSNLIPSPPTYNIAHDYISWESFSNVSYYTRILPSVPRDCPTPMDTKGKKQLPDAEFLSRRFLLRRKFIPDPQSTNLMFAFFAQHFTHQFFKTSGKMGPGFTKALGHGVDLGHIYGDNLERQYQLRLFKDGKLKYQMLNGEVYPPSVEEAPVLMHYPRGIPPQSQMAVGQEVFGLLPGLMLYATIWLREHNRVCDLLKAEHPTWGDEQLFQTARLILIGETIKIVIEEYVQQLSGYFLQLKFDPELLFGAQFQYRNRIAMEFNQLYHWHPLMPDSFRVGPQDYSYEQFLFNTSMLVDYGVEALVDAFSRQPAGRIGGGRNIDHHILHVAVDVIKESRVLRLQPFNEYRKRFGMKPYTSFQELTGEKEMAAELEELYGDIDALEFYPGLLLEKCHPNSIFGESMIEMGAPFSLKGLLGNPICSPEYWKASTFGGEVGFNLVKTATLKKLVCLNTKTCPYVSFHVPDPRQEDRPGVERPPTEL
- Measurement Description: LCMS-based COX-1 enzymatic inhibition assay (PGE2 quantification)
- Type: biochemical
- Condition: 10 minutes; readout pge2/pge2d4 area ratio; average LLE
Property Measured: COX1 10 minutes pge2/pge2d4 area ratio Avg. LLE

Worked examples, 2 compounds total:
[
  {
    "Molecular String": "CSc1ccc(NCc2cccs2)nc1-c1ccc(S(C)(=O)=O)cc1",
    "Recorded Result": 0.214
  },
  {
    "Molecular String": "COc1ncc(NCc2cccs2)nc1-c1ccc(S(C)(=O)=O)cc1",
    "Recorded Result": 1.794
  }
]

A. Cc1ncc(-c2ccc(S(C)(=O)=O)cc2)nc1OCc1cccs1
B. CS(=O)(=O)c1ccc(-c2cccc(OCc3cccs3)n2)nc1
I'd appreciate it if you could identify which of A and B has the greater COX1 10 minutes pge2/pge2d4 area ratio Avg. LLE. Indicate which entry you chose by stating its label.
A

* * *

- Study System: human recombinant COX2 (hCOX2) (UniProt P35354)
- Measurement Description: LCMS-based COX2 enzymatic inhibition assay (PGE2 quantification)
- Assay type: biochemical
- Design: COX2 2 minutes pge2/pge2d4 area ratio Avg; other: 2 minutes; readout pge2/pge2d4 area ratio; average; COX2 2 minutes pge2/pge2d4 area ratio Avg; LLE; average LLE; COX2 2 minutes pge2 area (counts) Avg; readout pge2 area (counts); other: 2 min; "ovine COX2 (oCOX2), human recombinant COX2 (hCOX2)"
- Condition: 2 minutes; readout pge2 area (counts); average; read-out: COX2 2 minutes pge2 area (counts) Avg. IC50
pIC50: −log10 of the molar value.
Property Measured: pIC50

1. CS(=O)(=O)c1ccc(-c2cccc(NCc3ccns3)n2)cc1 [Compound 87]
2. COc1ncc(NCc2ccco2)nc1-c1ccc(S(C)(=O)=O)cc1 [Compound 43]
Of 1 and 2 , whose reported pIC50 is the larger number? Respond using the label that marks the chosen record.
2

I. CS(=O)(=O)c1ccc(-c2cncc(NCc3cncs3)n2)cc1 [Compound 201]
II. CS(=O)(=O)c1ccc(-c2cccc(NCc3ccoc3)n2)cc1 [Compound 47]
Would you kindly point out which of I and II has the smaller pIC50 figure? Indicate your choice by writing its label.
I

* * *

- Measurement Description: PBS Solubility (no DMSO)
- Assay type: physicochemical
- Condition: aqueous buffer, thermodynamic from solid, average
Property Measured: solubility (µM)

Worked set:
[
  {
    "Compound": "COc1ncc(NCc2ccoc2)nc1-c1ccc(S(C)(=O)=O)cc1 [Compound 44]",
    "Unit Tag": "µM",
    "solubility": 28
  },
  {
    "Compound": "CS(=O)(=O)c1ccc(-c2cncc(OCc3cccs3)n2)cc1 [Compound 19]",
    "Unit Tag": "µM",
    "solubility": 5.8
  },
  {
    "Compound": "CS(=O)(=O)c1ccc(-c2cccc(NCc3ccco3)n2)cc1 [Compound 36]",
    "Unit Tag": "µM",
    "solubility": 27
  },
  {
    "Compound": "CS(=O)(=O)c1ccc(-c2ccc(F)c(NCc3ccoc3)n2)cc1 [Compound 33]",
    "Unit Tag": "µM",
    "solubility": 0.64
  },
  {
    "Compound": "CS(=O)(=O)c1ccc(-c2cccc(NCc3cccs3)n2)cc1 [Compound 24]",
    "Unit Tag": "µM",
    "solubility": 2.1
  },
  {
    "Compound": "Cc1occc1CNc1cccc(-c2ccc(S(C)(=O)=O)cc2)n1 [Compound 21]",
    "Unit Tag": "µM",
    "solubility": 18
  },
  {
    "Compound": "COc1ncc(NCc2cccs2)nc1-c1ccc(S(C)(=O)=O)cc1 [Compound 29]",
    "Unit Tag": "µM",
    "solubility": 2.8
  }
]

1. CS(=O)(=O)c1ccc(-c2cc(F)cc(NCc3ccco3)n2)cc1 [Compound 14]
2. COc1ncc(NCc2ccco2)nc1-c1ccc(S(C)(=O)=O)cc1 [Compound 43]
// pick larger solubility from pair: 1 vs 2 Answer with the label corresponding to your selection.
2
(2: 21 µM, 1: 6.1 µM)

* * *

- Study System: ovine COX-1 (oCOX-1) (Ovis aries)
- Construct: purchased Cayman Chemicals (Ann Arbor, Mich.)
- Measurement Description: LCMS-based COX-1 enzymatic inhibition assay (PGE2 quantification)
- Format: biochemical
- Condition: 10 minutes; readout pge2/pge2d4 area ratio; average; read-out: COX1 10 minutes pge2/pge2d4 area ratio Avg. IC50
pIC50: −log10 of the molar value.
Property Measured: pIC50

Before answering, review these 4 worked examples.
[
  {
    "Compound": "COc1cc(-c2ccc(S(C)(=O)=O)cc2)cc(NCc2cccs2)n1",
    "pIC50": 4.41
  },
  {
    "Compound": "CS(=O)(=O)c1ccc(-c2cccc(NCc3cccs3)c2)cc1",
    "pIC50": 4.44
  },
  {
    "Compound": "C[C@H](Oc1cccc(-c2ccc(S(C)(=O)=O)cc2)n1)c1cccs1 (single isomer, unassigned)",
    "pIC50": 4.29
  },
  {
    "Compound": "CS(=O)(=O)c1ccc(-c2cc(F)cc(OCc3cccs3)n2)cc1",
    "pIC50": 5.54
  }
]

I. CN(Cc1ccoc1)c1cccc(-c2ccc(S(C)(=O)=O)cc2)n1
II. CS(=O)(=O)c1ccc(-c2cccc(NCc3ccc(F)o3)n2)cc1
API: POST /compare with I and II ; response names the item with higher pIC50. Your answer should be the label attached to the chosen record.
II

* * *

- Study System: human recombinant COX2 (hCOX2)
- Measurement Description: LCMS-based COX2 enzymatic inhibition assay (PGE2 quantification)
- Type: biochemical
- Design: COX2 2 minutes pge2/pge2d4 area ratio Avg; other: 2 minutes; readout pge2/pge2d4 area ratio; average; COX2 2 minutes pge2/pge2d4 area ratio Avg; LLE; average LLE; COX2 2 minutes pge2 area (counts) Avg; readout pge2 area (counts); other: 2 min; "ovine COX2 (oCOX2), human recombinant COX2 (hCOX2)"
- Condition: 2 minutes; readout pge2/pge2d4 area ratio; average; read-out: COX2 2 minutes pge2/pge2d4 area ratio Avg. IC50
- Description: We have adapted a previously reported cyclooxygenase enzymatic assay utilizing LCMS quantification of PGE2 as the product of COX-1 and COX2 catalyzed conversion of arachidonic acid to evaluate the binding properties of newly synthesized ligands [Cao, 2011]. […] Using these enzymatic assays, we have evaluated>200 newly synthesized ligands against COX2 and >20 ligands against COX-1. […]
Property Measured: IC50 (nM)

See these solved cases before continuing.
[
  {
    "Compound": "CS(=O)(=O)c1ccc(-n2ccc3ccc(NCc4ccco4)nc32)cc1",
    "Property Measured": "IC50",
    "Recorded Result": 141
  },
  {
    "Compound": "CS(=O)(=O)c1ccc(-c2cncc(NCc3ccc(F)cn3)n2)cc1",
    "Property Measured": "IC50",
    "Recorded Result": 1690
  },
  {
    "Compound": "CS(=O)(=O)c1ccc(-c2cccc(OCc3ccco3)n2)cc1",
    "Property Measured": "IC50",
    "Recorded Result": 13.6
  },
  {
    "Compound": "CSc1ccc(-c2cncc(OCc3cccs3)n2)cc1",
    "Property Measured": "IC50",
    "Recorded Result": 3760
  },
  {
    "Compound": "CS(=O)(=O)c1ccc(-n2ccc3ccc([C@@H](O)c4cccs4)nc32)cc1 (single isomer, unassigned)",
    "Property Measured": "IC50",
    "Recorded Result": 1340
  }
]

I. CS(=O)(=O)c1ccc(-n2ccc3ncc(NCc4cccs4)nc32)cc1
II. COc1ncc(OCc2ccco2)nc1-c1ccc(S(C)(=O)=O)cc1
From the recorded data, which exceeds the other in IC50: I or II ? Indicate your choice by writing its label.
I
